Tested on: SF-268 CNS
ASSAY: NCI-60 one-dose screen, 48 h (100 = growth as untreated, 0 = no growth, -100 = all killed)
ASSAY SETUP: 10 µM
Compounds without any hit were thinned out: in the full panel of roughly 83,000, 20% have a hit. Calls of active or inactive are those of the source. The calls were made as follows: active = growth percent below 10; inactive = the rest.
We begin with a simple list: items and their reported growth.
PROPERTY MEASURED: growth

MOLECULE	PROPERTY MEASURED	OBSERVED VALUE
COc1ccc(C(=O)C(CN(C)C)CN(C)C)cc1	growth	96.5% (inactive)
Cc1cc(N(CCOS(C)(=O)=O)CCOS(C)(=O)=O)ccc1C=Nc1ccc(-c2nc(Cc3ccccc3)sc2C)cc1	growth	39.4% (inactive)
Cc1ccc(Sc2ccccc2N)cc1	growth	98.1% (inactive)
C=C1C(=O)OC2CC1C(OC(C)=O)C/C(C)=C/CC/C(C)=C\CCC2(C)O (stereo not given)	growth	27.1% (inactive)
O=[N+]([O-])c1cc[n+]([O-])cc1	growth	107% (inactive)

====

System: ACHN renal
ASSAY: NCI-60 one-dose screen, 48 h (100 = growth as untreated, 0 = no growth, -100 = all killed)
ASSAY SETUP: 10 µM
This is part of a sample that, as a whole, favours compounds with a hit. Of some 83,000 tested, about 20% had one in any assay.
We begin with a simple list: items and their reported growth.

COMPOUND	growth [%]
Cc1ccc(Sc2ccccc2N)cc1	-20
C=C1C(=O)OC2CC1C(OC(C)=O)C/C(C)=C/CC/C(C)=C\CCC2(C)O (centres undefined)	-5.85
COc1ccc(C(=O)C(CN(C)C)CN(C)C)cc1	-85.5
Cc1cc(N(CCOS(C)(=O)=O)CCOS(C)(=O)=O)ccc1C=Nc1ccc(-c2nc(Cc3ccccc3)sc2C)cc1	-23.2

====

We begin with a simple list: items and their reported growth.
System: SF-295 CNS
ASSAY: NCI-60 one-dose screen, 48 h (100 = growth as untreated, 0 = no growth, -100 = all killed)
ASSAY SETUP: 10 µM
This is part of a sample that, as a whole, favours compounds with a hit. Of some 83,000 tested, about 20% had one in any assay.
PROPERTY MEASURED: growth (%)

MOLECULE	OBSERVED VALUE
COc1ccc(C(=O)C(CN(C)C)CN(C)C)cc1	102
C#CCN(Cc1ccc2nc(N)[nH]c(=O)c2c1)c1ccc(C(=O)NC(CCC(=O)O)C(=O)O)cc1 (stereo not given)	99.5
O=[N+]([O-])c1cc[n+]([O-])cc1	101
C=C1C(=O)OC2CC1C(OC(C)=O)C/C(C)=C/CC/C(C)=C\CCC2(C)O (stereo not given)	106
Cc1cc(N(CCOS(C)(=O)=O)CCOS(C)(=O)=O)ccc1C=Nc1ccc(-c2nc(Cc3ccccc3)sc2C)cc1	12.6

====

Tested on: SK-OV-3 ovarian
ASSAY: NCI-60 one-dose screen, 48 h
ASSAY SETUP: 10 µM
Description: Growth inhibition of the SK-OV-3 human tumor cell line is measured as a screen for anti-cancer activity. Cells are grown in 96 well plates and exposed to the test compound for 48 hours. Compounds are tested at a single concentration, which is 10^-5 M for most compounds. The reported endpoint is percent growth (GI% or GIPRCNT), where numbers from 0 - 100% represent growth inhibition, and numbers from -100% - 0 represent cell death. For example, a value of 40 represents 60% growth inhibition. […]
Compounds without any hit were thinned out: in the full panel of roughly 83,000, 20% have a hit. Active and inactive are the calls of the source. How the source made its calls: active means growth percent below 10; inactive means the rest.
Classes used: True for active, False for inactive

COMPOUND	TEST TARGET	CAT
C=C1C(=O)OC2CC1C(OC(C)=O)C/C(C)=C/CC/C(C)=C\CCC2(C)O (centres undefined)	SK-OV-3 ovarian	False
O=[N+]([O-])c1cc[n+]([O-])cc1	SK-OV-3 ovarian	False
Cc1cc(N(CCOS(C)(=O)=O)CCOS(C)(=O)=O)ccc1C=Nc1ccc(-c2nc(Cc3ccccc3)sc2C)cc1	SK-OV-3 ovarian	True
C#CCN(Cc1ccc2nc(N)[nH]c(=O)c2c1)c1ccc(C(=O)NC(CCC(=O)O)C(=O)O)cc1 (centres undefined)	SK-OV-3 ovarian	False

====

Tested on: SN12C renal
ASSAY: NCI-60 one-dose screen, 48 h (100 = growth as untreated, 0 = no growth, -100 = all killed)
ASSAY SETUP: 10 µM
This is part of a sample that, as a whole, favours compounds with a hit. Of some 83,000 tested, about 20% had one in any assay. Active and inactive are the calls of the source. The calls were made as follows: active = growth percent below 10; inactive = the rest.
We begin with a simple list: items and their reported growth.

COMPOUND	growth
Cc1cc(N(CCOS(C)(=O)=O)CCOS(C)(=O)=O)ccc1C=Nc1ccc(-c2nc(Cc3ccccc3)sc2C)cc1	52.3% (inactive)
C=C1C(=O)OC2CC1C(OC(C)=O)C/C(C)=C/CC/C(C)=C\CCC2(C)O (centres undefined)	40.6% (inactive)
Cc1ccc(Sc2ccccc2N)cc1	89% (inactive)
O=[N+]([O-])c1cc[n+]([O-])cc1	92.8% (inactive)

====

System: NCI-H322M lung
ASSAY: NCI-60 one-dose screen, 48 h (100 = growth as untreated, 0 = no growth, -100 = all killed)
ASSAY SETUP: 10 µM
This is part of a sample that, as a whole, favours compounds with a hit. Of some 83,000 tested, about 20% had one in any assay.
// returns class 0 unless growth is strictly below 90%, in which case class 1

COMPOUND	CAT
COc1ccc(C(=O)C(CN(C)C)CN(C)C)cc1	class 0
Cc1cc(N(CCOS(C)(=O)=O)CCOS(C)(=O)=O)ccc1C=Nc1ccc(-c2nc(Cc3ccccc3)sc2C)cc1	class 1
Cc1ccc(Sc2ccccc2N)cc1	class 0
C=C1C(=O)OC2CC1C(OC(C)=O)C/C(C)=C/CC/C(C)=C\CCC2(C)O (stereo not given)	class 1

====

Test system: SK-MEL-5 melanoma
ASSAY: NCI-60 one-dose screen, 48 h (100 = growth as untreated, 0 = no growth, -100 = all killed)
ASSAY SETUP: 10 µM
This is part of a sample that, as a whole, favours compounds with a hit. Of some 83,000 tested, about 20% had one in any assay.
We begin with a simple list: items and their reported growth.

MOLECULE	growth / %
O=[N+]([O-])c1cc[n+]([O-])cc1	95
C#CCN(Cc1ccc2nc(N)[nH]c(=O)c2c1)c1ccc(C(=O)NC(CCC(=O)O)C(=O)O)cc1 (centres undefined)	100
COc1ccc(C(=O)C(CN(C)C)CN(C)C)cc1	101
C=C1C(=O)OC2CC1C(OC(C)=O)C/C(C)=C/CC/C(C)=C\CCC2(C)O (centres undefined)	55.8

====

Test system: M14 melanoma
ASSAY: NCI-60 one-dose screen, 48 h (100 = growth as untreated, 0 = no growth, -100 = all killed)
ASSAY SETUP: 10 µM
Compounds without any hit were thinned out: in the full panel of roughly 83,000, 20% have a hit. Active and inactive are the calls of the source. The calls were made as follows: active = growth percent below 10; inactive = the rest.

COMPOUND	TEST TARGET	growth
C#CCN(Cc1ccc2nc(N)[nH]c(=O)c2c1)c1ccc(C(=O)NC(CCC(=O)O)C(=O)O)cc1 (configuration not stated)	M14 melanoma	44.7% (inactive)
C=C1C(=O)OC2CC1C(OC(C)=O)C/C(C)=C/CC/C(C)=C\CCC2(C)O (configuration not stated)	M14 melanoma	16.4% (inactive)
O=[N+]([O-])c1cc[n+]([O-])cc1	M14 melanoma	113% (inactive)
COc1ccc(C(=O)C(CN(C)C)CN(C)C)cc1	M14 melanoma	52% (inactive)
CC1=CC(=C(c2ccc(N)cc2)c2ccc(N)cc2)C=CC1=N	M14 melanoma	27.4% (inactive)
Cc1cc(N(CCOS(C)(=O)=O)CCOS(C)(=O)=O)ccc1C=Nc1ccc(-c2nc(Cc3ccccc3)sc2C)cc1	M14 melanoma	25.8% (inactive)
Cc1ccc(Sc2ccccc2N)cc1	M14 melanoma	99.5% (inactive)

====

Tested on: BT-549 breast
ASSAY: NCI-60 one-dose screen, 48 h
ASSAY SETUP: 10 µM
Method: Growth inhibition of the BT-549 human tumor cell line is measured as a screen for anti-cancer activity. Cells are grown in 96 well plates and exposed to the test compound for 48 hours. Compounds are tested at a single concentration, which is 10^-5 M for most compounds. The reported endpoint is percent growth (GI% or GIPRCNT), where numbers from 0 - 100% represent growth inhibition, and numbers from -100% - 0 represent cell death. For example, a value of 40 represents 60% growth inhibition. […]
This is part of a sample that, as a whole, favours compounds with a hit. Of some 83,000 tested, about 20% had one in any assay. Calls of active or inactive are those of the source. Rule for the calls: active = growth percent below 10; inactive = the rest.
Classes used: yes (1) for active, no (0) for inactive

MOLECULE	CAT
COc1ccc(C(=O)C(CN(C)C)CN(C)C)cc1	no (0)
O=[N+]([O-])c1cc[n+]([O-])cc1	no (0)
C=C1C(=O)OC2CC1C(OC(C)=O)C/C(C)=C/CC/C(C)=C\CCC2(C)O (centres undefined)	yes (1)
Cc1cc(N(CCOS(C)(=O)=O)CCOS(C)(=O)=O)ccc1C=Nc1ccc(-c2nc(Cc3ccccc3)sc2C)cc1	no (0)
